Where do these numbers come from? They come from the DeepSol protein solubility set.

# PROTOCOL_DETAILS: soluble on expression in E. coli; label from the status in PepcDB or PDB records
EXPERIMENTAL_ENDPOINT: soluble on expression in E. coli

residue_sequence=MGSDKIHHHHHHMKRLAFVISSLGAGGAEKVLSLMSHYLAQKGISLTLISLGDSKSFYPLPAQAKIIALGECRSSKGVIDSLFQNLRRIQKLRQALRAARPDLILSFMTETNILSIIAAKSLGIPVIASEHTNYLWQPSRLWNRLRHLLYPLASATTLLTQRDKENHYGFLPQAKILPNPFDFPPLSPTPKEKIILGVGRLIKDKGFDRLIRAFSRISIGDYQLLIAGEGEERVRLEELIQSLGMEEKIHLLGSQKEIYPLYERASIFVLSSSMEGLSNALIEAMSMGCAVISFDCPYGPSEVITPQENGLLVPLHDEVALQEAMERLIQEEPLRQKLSQNAPKVRERFAIDRVMPQWEELMRSILDSTPSCSKES obs_value="not soluble"
residue_sequence=MGSDKIHHHHHHMTFIDSPLSQTIALAGGDLHVAVARSDLPLGALCGFASRRNPKRPFLFVSKVLGRHLPVRPQVMRMVHRRLAAKLPANLPGPVVAIGMAETAICLGQGVFEAWRGGSGREDGLFIHSTRYRLRQGLLSTFEESHSHATSHLIHQPAAALDRALCAACRTLVLVDDEASTGATFVALVEANRAAMPNLARIVCVTITDWMGAAKRAEITAAMPVPTTFVSLLEGGYTFEARTVTPPAMPNVTGDGAFKDDLIPVNWGRLGLRRPRPLPAAALAIRAKAGERVLVLGTGEFVFPPFQLARRLSAMGADVRVQATTRSPILEGGDIDGVIDFADAYGDGIPNFLYSTRPGDYDRVLVCYETPPSTAQTALIAALGAEPVFFNAIGGPRT obs_value="not soluble"
